Reference source for all entries: the supplement of paper PMC10307832

# System: NCI-H460
# protocol-details: relative viability (nuclei count vs DMSO), 5 days (fraction); higher = more cells survive
# experimental-parameters: first compound 0.5 µM
value-kind: relative viability
Numbers only.

Would you please look over these solved cases?
Nc1ccn([C@@H]2O[C@H](CO)[C@@H](O)[C@@H]2O)c(=O)n1 [Cytarabine] + Nc1ncn([C@H]2C[C@H](O)[C@@H](CO)O2)c(=O)n1 [Decitabine] (partner 2 µM): 0.0458
COc1cc2nccc(Oc3ccc(NC(=O)Nc4cc(C)on4)c(Cl)c3)c2cc1OC [Tivozanib] + CCNC(=O)c1noc(-c2cc(C(C)C)c(O)cc2O)c1-c1ccc(CN2CCOCC2)cc1 [Luminespib] (partner 0.01 µM): 0.0362
COc1cc2nccc(Oc3ccc(NC(=O)Nc4cc(C)on4)c(Cl)c3)c2cc1OC [Tivozanib] + Cc1nc(NC(=O)N2CCC[C@H]2C(N)=O)sc1-c1ccnc(C(C)(C)C(F)(F)F)c1 [Alpelisib] (partner 2 µM): 0.543

Could I get relative viability for every one of these entries?
1. COc1cc2nccc(Oc3ccc(NC(=O)Nc4cc(C)on4)c(Cl)c3)c2cc1OC [Tivozanib] + Cc1nc(Nc2ncc(C(=O)Nc3c(C)cccc3Cl)s2)cc(N2CCN(CCO)CC2)n1 [Dasatinib] (partner 0.075 µM)
2. COc1cc2nccc(Oc3ccc(NC(=O)Nc4cc(C)on4)c(Cl)c3)c2cc1OC [Tivozanib] + C[C@@H](Oc1cc(-c2cnn(C3CCNCC3)c2)cnc1N)c1c(Cl)ccc(F)c1Cl [Crizotinib] (partner 1 µM)
3. Nc1ccn([C@@H]2O[C@H](CO)[C@@H](O)[C@@H]2O)c(=O)n1 [Cytarabine] + Cc1nc(Nc2ncc(C(=O)Nc3c(C)cccc3Cl)s2)cc(N2CCN(CCO)CC2)n1 [Dasatinib] (partner 0.075 µM)
4. COc1cc2nccc(Oc3ccc(NC(=O)Nc4cc(C)on4)c(Cl)c3)c2cc1OC [Tivozanib] + O=C(CCCCCCC(=O)Nc1ccccc1)NO [Vorinostat] (partner 1 µM)

[0.529, 0.897, 0.0213, 0.569]

Could I get relative viability for every one of these entries?
1. Nc1ccn([C@@H]2O[C@H](CO)[C@@H](O)[C@@H]2O)c(=O)n1 [Cytarabine] + N=C(N)NC(=N)NCCc1ccccc1 [Phenformin] (partner 250 µM)
2. Nc1ccn([C@@H]2O[C@H](CO)[C@@H](O)[C@@H]2O)c(=O)n1 [Cytarabine] + CCNC(=O)c1noc(-c2cc(C(C)C)c(O)cc2O)c1-c1ccc(CN2CCOCC2)cc1 [Luminespib] (partner 0.01 µM)
3. Nc1ccn([C@@H]2O[C@H](CO)[C@@H](O)[C@@H]2O)c(=O)n1 [Cytarabine] + NC(=O)Nc1cc(-c2cccc(F)c2)sc1C(=O)N[C@H]1CCCNC1 [AZD7762] (partner 0.2 µM)
4. COc1cc2nccc(Oc3ccc(NC(=O)Nc4cc(C)on4)c(Cl)c3)c2cc1OC [Tivozanib] + CC1(C)CCC(c2ccc(Cl)cc2)=C(CN2CCN(c3ccc(C(=O)NS(=O)(=O)c4ccc(N[C@H](CCN5CCOCC5)CSc5ccccc5)c(S(=O)(=O)C(F)(F)F)c4)cc3)CC2)C1 [Navitoclax] (partner 0.5 µM)

[0.0341, 0.0144, 0.0286, 1.1]

Could I get relative viability for every one of these entries?
1. Nc1ccn([C@@H]2O[C@H](CO)[C@@H](O)[C@@H]2O)c(=O)n1 [Cytarabine] + COc1cccc2cc(-c3nc([C@H]4CC[C@H](C(=O)O)CC4)n4ncnc(N)c34)[nH]c12 [OSI-027] (partner 0.5 µM)
2. COc1cc2nccc(Oc3ccc(NC(=O)Nc4cc(C)on4)c(Cl)c3)c2cc1OC [Tivozanib] + CC(=O)c1c(C)c2cnc(Nc3ccc(N4CCNCC4)cn3)nc2n(C2CCCC2)c1=O [Palbociclib] (partner 0.5 µM)
3. COc1cc2nccc(Oc3ccc(NC(=O)Nc4cc(C)on4)c(Cl)c3)c2cc1OC [Tivozanib] + COc1cc2c(Oc3ccc(NC(=O)C4(C(=O)Nc5ccc(F)cc5)CC4)cc3F)ccnc2cc1OCCCN1CCOCC1 [Foretinib] (partner 0.25 µM)

0.0359
0.209
0.96

Output measured relative viability for this item: Nc1ccn([C@@H]2O[C@H](CO)[C@@H](O)[C@@H]2O)c(=O)n1 [Cytarabine] + CC(C)C[C@H](NC(=O)[C@H](Cc1ccccc1)NC(=O)c1cnccn1)B(O)O [Bortezomib] (partner 0.002 µM) 0.0192
